The reported numbers originate from patent US20230399358A1.

Overview of recorded % Binding for various binders
- TARGET OF ASSAY: human polyclonal IgG (human)
- ASSAY DETAILS: batch incubation of peptide-Toyopearl resin with human IgG, Bradford of unbound IgG; mg IgG bound relative to WQRHGI
Write the value in % as a bare number.

>>> numeric_value("WQRHAI [WQRHAI (SEQ ID NO:11)]")
95.4
>>> numeric_value("WQRHGV [WQRHGV (SEQ ID NO:10)]")
96
>>> numeric_value("FQRHGI [FQRHGI (SEQ ID NO:29)]")
37.2

Read the next record carefully.
Note down % Binding recorded for WNRHGI [WNRHGI (SEQ ID NO:12)]
77.4
